The reported numbers originate from ChEMBL document CHEMBL1159061.

Test system: KB
Test: Antiproliferative activity against human KB cells at 10 uM after 72 hrs by MTS assay
Assay type: functional
# inhibition at 10 µM per record follows
Please give a number only; it is taken to be in %.

Consider the worked cases shown below.
O=C(O)c1ccc(O)c(-c2nc(C(=O)NCCOCCOCCNC(=O)c3csc(-c4cc(C(=O)O)ccc4O)n3)cs2)c1 ... 2
COC(=O)c1ccc(O)c(-c2nc(C(=O)NCCOCCOCCNC(=O)c3csc(-c4cc(C(=O)OC)ccc4O)n3)cs2)c1 ... 28
O=C(O)c1ccc(O)c(-c2nc(C(=S)NCCOCCOCCNC(=S)c3csc(-c4cc(C(=O)O)ccc4O)n3)cs2)c1 ... 0
CC(=O)N(O)CCCCCNC(=O)CCC(=O)N(O)CCCCCNC(=O)CCC(=O)N(O)CCCCCN ... 16

We now examine a further compound.
Form: compound = COC(=O)c1ccc(O)c(-c2nc(C(=S)NCCOCCOCCNC(=S)c3csc(-c4cc(C(=O)OC)ccc4O)n3)cs2)c1 ; inhibition at 10 µM = 58
